Experiment: protein stability index of a GFP-peptide fusion (yeast GPS) (PSI 1-4); higher = more stable; sorted into four equal gates, so the index is relative within each strain
Settings: doa10∆
Measured protein stability index of individual entries
Form: value (number only, do not type unit).

NLGSNVRNSFPLDEIPV [REC8] ... 2.95
KSLEDLSCQYDNTVRTS [RPO31] ... 1.3
KEFDETIFNLPKNKLVP [FAS1] ... 3.5
IESNKLAGVLYESRNVA [RRP6] ... 2.93

Noted for PRMASVFENYVKKTGEN [CDC53] : its protein stability index reads 3.46

Noted for SAVKPRPLKLERGFACI [FAS1] : its protein stability index reads 2.16

Noted for WRKDAQGNYPTTSYIKE [DPB4] : its protein stability index reads 2.94

Noted for TKIGAKRIHSVRTRGGN [RPS8A] : its protein stability index reads 2.84
